Where these numbers come from: the pKa sets of Baltruschat and Czodrowski (2020)

details: basic group
Please assign a class to every record based on measured pKa, with ranges low band: < 6; middle band: ≥ 6 and < 9; high band: ≥ 9

Ask: For CNCCc1ccc(O)cc1 , which pKa bin applies?
Reply: high band

Ask: For C#CCN(CC#C)CC#C , which pKa bin applies?
Reply: low band

Ask: For CCN(CC)CCSC(C)C , which pKa bin applies?
Reply: high band

Ask: For c1c[nH+]ccn1 , which pKa bin applies?
Reply: low band

Ask: For CC(C)NCCNC(C)C , which pKa bin applies?
Reply: high band

Ask: For CC(C)N(CC1CO1)CC1CO1 (centres undefined) , which pKa bin applies?
Reply: middle band

Ask: For Nc1cc[nH+]c([O-])n1 , which pKa bin applies?
Reply: low band

Ask: For O=C(O)c1ncccn1 , which pKa bin applies?
Reply: low band

Ask: For [S-]c1ncccn1 , which pKa bin applies?
Reply: middle band

Ask: For CCCNN , which pKa bin applies?
Reply: middle band

Ask: For CCP(=S)(CC)C(=S)NN , which pKa bin applies?
Reply: low band

Ask: For c1csc(C2CCCN2)c1 (centres undefined) , which pKa bin applies?
Reply: high band

Ask: For Nc1ccc2nc3ccccc3nc2c1 , which pKa bin applies?
Reply: low band

Ask: For CC(=O)c1ccc(N)cc1 , which pKa bin applies?
Reply: low band

Ask: For c1ccc(C2CN2)cc1 (centres undefined) , which pKa bin applies?
Reply: middle band

Ask: For COc1ccc2c3c([nH]c2c1)C(C)=NCC3 , which pKa bin applies?
Reply: high band

Ask: For NC1=N[C@H]2C[C@@H](N1)N[C@@H]2C(=O)[O-] , which pKa bin applies?
Reply: high band

Ask: For Cc1cc(-c2ccc(N)c(C)c2)ccc1N , which pKa bin applies?
Reply: low band

Ask: For CC(N)CO (centres undefined) , which pKa bin applies?
Reply: high band

Ask: For COc1ccc(Nc2ccccc2)cc1 , which pKa bin applies?
Reply: low band

Ask: For C1CCN(N2CCCCC2)CC1 , which pKa bin applies?
Reply: middle band

Ask: For Nc1cccc(Cl)c1 , which pKa bin applies?
Reply: low band

Ask: For Cn1ccnc1-c1nccn1C , which pKa bin applies?
Reply: low band

Ask: For c1ccc(-c2ccc3ccc4cccnc4c3n2)cc1 , which pKa bin applies?
Reply: low band

Ask: For C=CCN(CC=C)CCOC(=O)C(=C)C , which pKa bin applies?
Reply: middle band

Ask: For COc1cc(S(C)=O)ccc1-c1cn2cccnc2n1 (centres undefined) , which pKa bin applies?
Reply: low band

Ask: For Cc1ncc2nc(C)c(C)nc2n1 , which pKa bin applies?
Reply: low band

Ask: For NCCBr , which pKa bin applies?
Reply: middle band

Ask: For CCCCc1c(C)nc(NCC)nc1[O-] , which pKa bin applies?
Reply: high band

Ask: For N[C@H]1CCC[C@@H]1O , which pKa bin applies?
Reply: high band

Ask: For CCn1cnc2ccccc21 , which pKa bin applies?
Reply: low band

Ask: For CCCCCN , which pKa bin applies?
Reply: high band

Ask: For N=C(N)N , which pKa bin applies?
Reply: high band

Ask: For c1ccc(NC2CCCC2)cc1 , which pKa bin applies?
Reply: low band

Ask: For CN(C1=NCCO1)c1ccccc1 , which pKa bin applies?
Reply: middle band

Ask: For CC(C)(N)C(C)(C)N , which pKa bin applies?
Reply: high band

Ask: For c1ccc2nc3ccccc3cc2c1 , which pKa bin applies?
Reply: low band

Ask: For CN(C)Cc1cc(C[NH+](C)C)cc(O)c1O , which pKa bin applies?
Reply: middle band

Ask: For CCCCCC/N=C/c1c(C)cnc(C)c1O , which pKa bin applies?
Reply: middle band

Ask: For Cn1c(N)nc(=O)c2[nH]cnc21 , which pKa bin applies?
Reply: low band

Ask: For C=CC1CN2CCC1C[C@H]2C(=O)[O-] (some centres undefined) , which pKa bin applies?
Reply: high band

Ask: For Nc1ccc2c(c1)Cc1cc(O)ccc1-2 , which pKa bin applies?
Reply: low band

Ask: For COC(=O)CN , which pKa bin applies?
Reply: middle band

Ask: For CCCCNCC/C(N)=N/O , which pKa bin applies?
Reply: high band

Ask: For Nc1cc(/C=C/c2ccccc2)nc(/C=C/c2ccccc2)c1 , which pKa bin applies?
Reply: middle band

Ask: For CC(C)C[C@H](N)C(=O)[O-] , which pKa bin applies?
Reply: high band

Ask: For CCN(CC)CCCNC(=O)/C=N/[O-] , which pKa bin applies?
Reply: high band

Ask: For O=C1C[C@@H]2OCC=C3CN4CC[C@@]56c7ccccc7N1[C@H]5C2[C@@]3(S(=O)(=O)[O-])C[C@H]46 (some centres undefined) , which pKa bin applies?
Reply: middle band

Ask: For c1cc(N2CCCCC2)ccc1N1CCCCC1 , which pKa bin applies?
Reply: middle band

Ask: For Cc1c(C(C)C)c(=O)n(-c2ccccc2)n1C , which pKa bin applies?
Reply: low band

Ask: For N=C(N)Nc1nc(N)nc(NC(=N)N)n1 , which pKa bin applies?
Reply: high band
